Test system: CP286
Assay Overview: qHTS profiling for inhibitors of Plasmodium falciparum proliferation (AID 504749); further: nearly all actives have a fitted effect of over 60% in size
Reported Conditions: P. falciparum in erythrocytes, SYBR Green DNA, 72 h; series mostly up to 28.7 µM
Inconclusive results are not listed. Calls of active or inactive are those of the source. The call rests on the fitted dose curve; in most records, active means well fitted inhibition curve with a large enough effect; inconclusive means small, poorly fitted or top-dose-only effect; inactive means flat fitted curve, though single readings scatter.
Just give me one of these, please: t = active, f = inactive

[[record]]
molecule = "O=C1c2ccccc2C(=O)C1C(=O)C(c1ccccc1)c1ccccc1"
assigned_class = "f"

[[record]]
molecule = "CN1C(=O)CCS(=O)(=O)C1c1ccc(Cl)cc1 (centres undefined)"
assigned_class = "f"

[[record]]
molecule = "CC(C)NC(C)C"
assigned_class = "f"

[[record]]
molecule = "CC(C)=CC1C(C(=O)OCN2C(=O)C3=C(CCCC3)C2=O)C1(C)C (centres undefined)"
assigned_class = "f"

[[record]]
molecule = "NNc1ccccc1"
assigned_class = "f"


Incoming: Test call, this molecule: `O=C1CN=C(c2ccccc2)c2cc([N+](=O)[O-])ccc2N1`
Outgoing: f

Incoming: Test call, this molecule: `CN1C[C@H](C(=O)N[C@]2(C)O[C@@]3(O)[C@@H]4CCCN4C(=O)[C@H](Cc4ccccc4)N3C2=O)C=C2c3cccc4[nH]cc(c34)C[C@H]21`
Outgoing: t

Incoming: Test call, this molecule: `Nc1nc(N)nc(NC2CC2)n1`
Outgoing: f

Incoming: Test call, this molecule: `Nc1ccc([As](=O)(O)O)cc1`
Outgoing: f
